Conditions: 298.15 K; 101.33 kPa; Liquid
Reported Endpoint: mass density (kg/m3)
Numbers only, in kg/m3.

Examples with their reported mass density follow.
CN1CCOCC1 [N-methylmorpholine]; 914.06
CCCO [propan-1-ol]; 799.52
CCCCO [butan-1-ol]; 805.92
CCO [ethanol]; 784.94
CCCCCO [pentan-1-ol]; 810.83
CCCCCCCCO [octan-1-ol]; 821.65

// next item, mass density requested
Query: Please give measured mass density of the following entry: CCCCCCO [hexan-1-ol]
Result: 814.95
